# Procedure summary: inhibitors of TNFa-induced NFkB p65 translocation, primary screen, imaging, HUVEC, MLSMR starter and 10KST1 sets (AID 438);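 note: compound added about 3h40 before a 20 min TNFalpha stimulation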
# Measurement context: HUVEC TNFa-induced p65 nuclear translocation; measured here: nuclei count (cytotoxicity indicator), at 2.08 µM
Parameter measured: cell count

molecule=COc1ccc(-n2ncc3c(NCc4ccccn4)ncnc32)cc1 meas_value=463
molecule="C=CCOC(=O)C(C#N)c1nc2ccccc2nc1N1CCN(Cc2ccccc2)CC1 (stereo unspecified)" meas_value=469
molecule="Cc1ccc(O)c(C(=O)c2cc(C#N)c(=O)n(CC3CCCO3)c2)c1 (stereo unspecified)" meas_value=449
molecule="CC(=O)NCC(=O)OC(C)C(=O)Nc1ccc(C(C)=O)cc1 (stereo unspecified)" meas_value=413
molecule=COc1nc(N2CCOCC2)nc(-n2cccc2)n1 meas_value=534
molecule="CC1=C(C(N)=O)C(c2ccc(Cl)cc2Cl)n2ncnc2N1 (stereo unspecified)" meas_value=631

---

# Procedure summary: reduction of polyQ htt aggregates in cells – imaging, exon1htt(103Q)mCFP cells, high-content imaging, primary screen (AID 483);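 note: compound exposure lasted 3 days before fixation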
# Measurement context: exon1htt(103Q)mCFP cell line, aggregate imaging, at 2 µM; stronger effect = higher value
Parameter measured: inhibition of aggregation (%)

molecule=O=C(COc1nnnc2ccccc12)N1CCCc2ccccc21 parameter_measured="inhibition of aggregation" meas_value=-10.1
molecule="CN1CCCC(OC(=O)COc2ccc(Br)cc2)C1 (stereo unspecified)" parameter_measured="inhibition of aggregation" meas_value=2.1
molecule="Cc1ccc2cc(CN(CC(C)C)C(=O)C3CCCO3)c(=O)[nH]c2c1 (stereo unspecified)" parameter_measured="inhibition of aggregation" meas_value=12
molecule=COC(=O)c1cc(O)c(OCc2ccccc2)c(O)c1 parameter_measured="inhibition of aggregation" meas_value=20.1
molecule=O=C(CC1CCCCC1)NCc1ccccn1 parameter_measured="inhibition of aggregation" meas_value=11.3
molecule=COc1ccc(-c2cnc(SCC(=O)Nc3ccc4c(c3)OCO4)n2Cc2ccco2)cc1 parameter_measured="inhibition of aggregation" meas_value=-8.7
molecule=CN(C)/C=c1\sc2c(C#N)cc(C(=O)c3ccc(Br)cc3)n2c1=O parameter_measured="inhibition of aggregation" meas_value=5.6
molecule=CCc1nc(SCC(=O)Nc2nccs2)c2oc3ccccc3c2n1 parameter_measured="inhibition of aggregation" meas_value=12.5
molecule="CCOc1ccccc1N1C(=O)CC(Sc2ncccc2C(=O)O)C1=O (stereo unspecified)" parameter_measured="inhibition of aggregation" meas_value=-13.3
molecule="OCCN1CCN(CC(O)COc2ccc3ccccc3c2)CC1 (stereo unspecified)" parameter_measured="inhibition of aggregation" meas_value=0.6
molecule=COC(=O)c1[nH]c2cccc(C)c2c1NC(=O)CN1CCCc2ccccc21 parameter_measured="inhibition of aggregation" meas_value=22.8
molecule=N#Cc1c(N)n(CCNC(=O)c2cccs2)c2nc3ccccc3nc12 parameter_measured="inhibition of aggregation" meas_value=17.7
molecule=Cc1ccc(C)c(N2CCN(C(=O)C3CCN(S(=O)(=O)c4c(C)noc4C)CC3)CC2)c1 parameter_measured="inhibition of aggregation" meas_value=30.5
molecule=c1ccc(-c2csc(N3CCCCCC3)n2)cc1 parameter_measured="inhibition of aggregation" meas_value=-6.8
molecule=COC(=O)Cn1cc(C(=O)c2cccs2)c2ccccc21 parameter_measured="inhibition of aggregation" meas_value=8.5
molecule=O=c1c[n+]([O-])c2ccccc2n1OCc1ccccn1 parameter_measured="inhibition of aggregation" meas_value=-17.9
molecule=O=C1c2ccccc2-c2nc3ncnn3c(-c3ccccc3)c21 parameter_measured="inhibition of aggregation" meas_value=-4.5
molecule=C=CCOc1nc(N2CCCC2)nc(N2CCCC2)n1 parameter_measured="inhibition of aggregation" meas_value=4.8
molecule="CCCc1[nH]nc2c1C(c1cccc(OC(=O)c3ccco3)c1)C(C#N)=C(N)O2 (stereo unspecified)" parameter_measured="inhibition of aggregation" meas_value=-11.9
molecule="CCCCNC(=O)OC(C)CNC(=O)Oc1cccc(C)c1 (stereo unspecified)" parameter_measured="inhibition of aggregation" meas_value=13.4
molecule="COCc1[nH]nc2c1C(C1C=CCCC1)C(C#N)=C(N)O2 (stereo unspecified)" parameter_measured="inhibition of aggregation" meas_value=-1.8
molecule="O=C1CC(N2CCC(C(=O)N3CCCCC3)CC2)C(=O)N1 (stereo unspecified)" parameter_measured="inhibition of aggregation" meas_value=10.7
molecule=CCCCOC(=O)Nc1nc2ccc(OC)cc2s1 parameter_measured="inhibition of aggregation" meas_value=7.1
molecule="COc1ccc(S(=O)(=O)NC(CC(=O)NCc2ccco2)c2ccco2)cc1 (stereo unspecified)" parameter_measured="inhibition of aggregation" meas_value=0.5
molecule=Cc1onc(-c2ccccc2)c1C(=O)Nc1ccnn1C1CCCCC1 parameter_measured="inhibition of aggregation" meas_value=0.6
molecule="COc1ccc(/C(O)=C2/C(=O)C(=O)N(CC3CCCO3)C2c2cccc(OC)c2)cc1 (stereo unspecified)" parameter_measured="inhibition of aggregation" meas_value=-15.3
molecule=CC(=O)c1cccc(NC(=O)c2ccc(NS(C)(=O)=O)cc2)c1 parameter_measured="inhibition of aggregation" meas_value=9
molecule=COc1ccc(-c2cc(C(F)(F)F)nc(SCC(=O)NCc3ccco3)n2)cc1OC parameter_measured="inhibition of aggregation" meas_value=-5.9
molecule="CCOC(=O)C(CC)Sc1ncnc2nc[nH]c12 (stereo unspecified)" parameter_measured="inhibition of aggregation" meas_value=-18.9
molecule=COc1ccc(CN(C)CC(=O)c2c(N)n(Cc3ccccc3)c(=O)n(C)c2=O)c(OC)c1 parameter_measured="inhibition of aggregation" meas_value=-15.1
molecule=Cn1nnnc1SCC(=O)NCc1ccco1 parameter_measured="inhibition of aggregation" meas_value=-7.3
molecule=COc1ccccc1C(=O)Nc1ccc(N2CCN(S(C)(=O)=O)CC2)cc1 parameter_measured="inhibition of aggregation" meas_value=7
molecule=CCn1c(=O)n(CC(=O)Nc2cc(OC)ccc2OC)c(=O)c2ccccc21 parameter_measured="inhibition of aggregation" meas_value=17.9
molecule=COc1ccc(OC)c(S(=O)(=O)Nc2ccccc2C(=O)O)c1 parameter_measured="inhibition of aggregation" meas_value=0
molecule=Cc1coc(NC(=O)CSc2nc(-c3ccncc3)cc(C(F)(F)F)c2C#N)n1 parameter_measured="inhibition of aggregation" meas_value=16.1
molecule=Cn1cc(C(=O)NC2CCCCCCC2)c(=O)c2cc(S(=O)(=O)N3CCCC3)ccc21 parameter_measured="inhibition of aggregation" meas_value=8.6
molecule=CCc1ccc2nc(NC(=O)CSCc3c(C)noc3C)sc2c1 parameter_measured="inhibition of aggregation" meas_value=-12.1
molecule=COc1ccc(CNc2nc(SCC(=O)NCc3ccco3)nc3ccccc23)cc1 parameter_measured="inhibition of aggregation" meas_value=-24.8
molecule=CC(=O)Nc1cccc(NC(=O)CSc2nnnn2C(C)C)c1 parameter_measured="inhibition of aggregation" meas_value=13.7
molecule=O=C(NCCCN1CCCC1=O)c1cncc(Br)c1 parameter_measured="inhibition of aggregation" meas_value=14.1
molecule="CCc1ncc(C(O)c2cccc(OC)c2OC)n1C (stereo unspecified)" parameter_measured="inhibition of aggregation" meas_value=7.4
molecule=CCc1c(C)nc(N2CCN(Cc3ccccc3)CC2)[nH]c1=O parameter_measured="inhibition of aggregation" meas_value=17.3
molecule=CCOc1cccc(C(=O)Nc2cccc(-c3nc4ncccc4o3)c2C)c1 parameter_measured="inhibition of aggregation" meas_value=10.5
molecule="COc1ccc(N2CCN(C(=O)CN3C(=O)C4CC=CCC4C3=O)CC2)cc1 (stereo unspecified)" parameter_measured="inhibition of aggregation" meas_value=11
molecule=Nc1nonc1-c1noc(-c2ccccc2Br)n1 parameter_measured="inhibition of aggregation" meas_value=-6.3
molecule=Cc1ccc2nsnc2c1S(=O)(=O)N1CCN(Cc2ccc3c(c2)OCO3)CC1 parameter_measured="inhibition of aggregation" meas_value=-11.5

The measurements presented in this section are drawn from PubChem BioAssay.
